- assaySystem: Human ALDH3A1 (Homo sapiens)
- Sequence (P30838 whole entry): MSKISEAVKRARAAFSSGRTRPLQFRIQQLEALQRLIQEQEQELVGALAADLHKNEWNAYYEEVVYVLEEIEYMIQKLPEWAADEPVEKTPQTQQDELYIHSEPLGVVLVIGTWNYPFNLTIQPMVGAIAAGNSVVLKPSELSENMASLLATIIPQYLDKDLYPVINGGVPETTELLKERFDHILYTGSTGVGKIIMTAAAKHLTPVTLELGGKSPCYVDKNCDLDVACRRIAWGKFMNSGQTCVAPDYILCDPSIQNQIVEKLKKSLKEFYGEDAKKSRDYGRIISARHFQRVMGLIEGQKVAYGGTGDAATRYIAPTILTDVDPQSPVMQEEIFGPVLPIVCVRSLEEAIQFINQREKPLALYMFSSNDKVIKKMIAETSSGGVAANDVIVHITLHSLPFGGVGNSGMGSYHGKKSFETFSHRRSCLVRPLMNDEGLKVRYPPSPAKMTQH
- assaySummary: ALDH3A1 biochemical assay (benzaldehyde/NADP+, diaphorase-resazurin readout, 1,536-well)
- studyConditions: Table S4, biochemical curve class
experimentalReadout: CC-v2

INSERT INTO measurements (compound, valuereported) VALUES
  ('COc1ccc(N2CCN(c3nc(C(=O)NCc4cccc(C(F)(F)F)c4)cs3)CC2)cc1 [NCGC01211588-01]', -1.2),
  ('Cc1cccc(CNC(=O)c2csc(N3CCN(c4cccc(OCc5ccccc5C)c4)CC3)n2)c1 [NCGC01211373-01]', -1.2),
  ('Cc1cccc(CNC(=O)c2csc(N3CCN(c4ccc(F)cc4)CC3)n2)c1 [NCGC01219292-01]', -1.1),
  ('COc1ccc(F)c(N2CCN(c3nc(C(=O)NCc4cccc(C)c4)cs3)CC2)c1 [NCGC01211189-01]', -1.1),
  ('Cc1cccc(CNC(=O)c2csc(N3CCN(c4ccc(OC(F)(F)F)cc4)CC3)n2)c1 [NCGC01211384-01]', -1.1),
  ('COc1ccc(N2CCN(c3nc(C(=O)NCc4cccc(C)c4)cs3)CC2)c(OC)c1 [NCGC01211174-01]', -1.2),
  ('Cc1cccc(CNC(=O)c2csc(N3CCN(c4ccc(C(F)(F)F)cc4)CC3)n2)c1 [Compound 7]', -1.1),
  ('Cc1cccc(CNC(=O)c2csc(N3CCN(c4cccc([N+](=O)[O-])c4)CC3)n2)c1 [Compound 8]', -1.1);
